compounds and their reported FI (BTK-1h)/FI (BTK-1h+Inhibitor) at 620 nm
- tested.target: BTK-1h (Homo sapiens)
- Construct: The BTK kinase domain was diluted to 2 μM in the buffer, and 2 μM 1h was added; made in house
- Sequence (Q06187 402-655): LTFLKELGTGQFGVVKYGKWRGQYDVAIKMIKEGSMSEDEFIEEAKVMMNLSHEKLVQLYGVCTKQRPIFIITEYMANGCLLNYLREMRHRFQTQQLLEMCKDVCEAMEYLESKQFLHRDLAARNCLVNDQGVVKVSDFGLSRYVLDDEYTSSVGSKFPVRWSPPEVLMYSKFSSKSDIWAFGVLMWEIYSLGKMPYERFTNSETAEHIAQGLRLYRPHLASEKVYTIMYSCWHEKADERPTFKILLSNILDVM
- assay.protocol: High-throughput screening with 1h-labeled BTK
- Type: binding
- condition.notes: Dataset S2A; 200 μM compound, BTK-1h, 32 °C, 10 min
Lab note: record the figure alone, no unit after it.

Record excerpt, results attached:
[[record]]
smiles_representation = "O=c1cc(-c2ccc(O)cc2)oc2cc(O)cc(O)c12"
number = 1.036

[[record]]
smiles_representation = "Cc1ccc(C(=O)Nc2ccc(CN3CCN(C)CC3)c(C(F)(F)F)c2)cc1C#Cc1cnc2cccnn12"
number = 1.075

[[record]]
smiles_representation = "Cl.O=C(c1ccc(OCCN2CCCCC2)cc1)c1c(-c2ccc(O)cc2)sc2cc(O)ccc12"
number = 1.018

[[record]]
smiles_representation = "COc1cc(NC(=O)c2ccc(-c3ccc(Cl)cc3)o2)cc(OC)c1"
number = 1.041

[[record]]
smiles_representation = "O=[N+]([O-])c1ccc(Sc2cccc[n+]2[O-])c2nonc12"
number = 1.02

[[record]]
smiles_representation = "O=C(/C=C/c1ccc(O)c(O)c1)c1ccc(O)cc1O"
number = 1.03

[[record]]
smiles_representation = "O=C(N/N=C/c1cc(O)c(O)cc1O)c1cc2ccccc2cc1O"
number = 0.9372

[[record]]
smiles_representation = "Cc1cc(N=Nc2ccc(S(=O)(=O)Nc3ccccn3)cc2)c(N)cc1O"
number = 1.008


Which FI (BTK-1h)/FI (BTK-1h+Inhibitor) at 620 nm value belongs to C=CC(=O)Nc1cccc(C)c1Nc1ncc2cc(-c3c(Cl)c(OC)cc(OC)c3Cl)ccc2n1 ?
1.041

Next: NC(=O)Nc1cc(-c2cccc(F)c2)sc1C(=O)N[C@H]1CCCNC1
1.137

Next: CC(C)=CCC/C(C)=C/Cc1c(O)c(CC=C(C)C)c2c(c1O)C(=O)C1=C[C@@H]3C[C@H]4C(C)(C)O[C@@](C/C=C(/C)C(=O)O)(C3=O)[C@@]14O2
1.011

Next: C=CC(=O)Nc1cc(Nc2nccc(-c3c[nH]c4ccccc34)n2)c(OC)cc1N(C)CCN(C)C
1.031

Next: CCOc1cc2ncc(C#N)c(Nc3ccc(F)c(Cl)c3)c2cc1NC(=O)/C=C/CN(C)C
1.036
